target: EphB1 ectodomain fused to human Fc, carboxy-terminal hexahistidine tag (human); assay: inhibition of ephrin-B2 AP binding to immobilized EphB1 ectodomain Fc; biotinylated peptide
assayReadout: IC50
I'd appreciate it if you wrote the number followed by its unit.

Ask: Look up IC50 for this binder: AHTFPYPHPKPHGSGS (C-terminal biotin: on the Lys side chain of a GSGSK linker, or N-biotinyl-ethylenediamine after GSGS (which one is not stated)) [AHTF peptide, synthetic, biotinylated]
Result: 150 µM

Where do the numbers come from? From patent US20060177452A1.
